- Tested on: ECV-304
- TEST DESCRIPTION: Membranolytic activity in human ECV304 cells assessed as leakage of intracellular lactate dehydrogenase after 2 hrs by spectrophotometry
- Format: functional, cell-based
- CONDITION DESCRIPTION: ECV-304, 2 h
pIC50: −log10 of the molar value.
PARAMETER: pIC50

COMPOUND: CC1(C)[C@@H](O)CC[C@]2(C)[C@H]3C(=O)C=C4[C@@H]5C[C@@](C)(C(=O)O)CC[C@]5(C)CC[C@@]4(C)[C@]3(C)CC[C@@H]12
READING QUALIFIER: =
READING: 3.53

COMPOUND: C[C@@H]1CC[C@@]2(OC1)O[C@H]1[C@@H](O)[C@H]3[C@@H]4CC[C@H]5C[C@@H](O[C@@H]6O[C@H](CO)[C@H](O[C@@H]7O[C@H](CO)C(O)[C@H](O[C@@H]8OC[C@@H](O)[C@H](O)[C@H]8O)[C@H]7O[C@@H]7O[C@H](CO)[C@H](O)[C@H](O[C@@H]8O[C@H](CO)[C@@H](O)[C@H](O)[C@H]8O)[C@H]7O)[C@H](O)[C@H]6O)[C@H](O)C[C@]5(C)[C@H]4CC[C@]3(C)[C@H]1[C@@H]2C (stereo not given in full)
READING QUALIFIER: =
READING: 4.82

COMPOUND: C[C@@H]1O[C@@H](O[C@H]2[C@H](O[C@H]3CC[C@@]4(C)[C@@H](CC[C@]5(C)[C@@H]4CC=C4[C@@H]6CC(C)(C)CC[C@]6(C(=O)O)CC[C@]45C)[C@]3(C)CO)OC[C@H](O)[C@@H]2O)[C@H](O)[C@H](O)[C@H]1O
READING QUALIFIER: =
READING: 4.54

COMPOUND: CC(C)=CCC[C@](C)(O)[C@H]1CC[C@]2(C)[C@@H]1[C@H](O)C[C@@H]1[C@@]3(C)CC[C@H](O)C(C)(C)[C@@H]3[C@@H](O[C@@H]3O[C@H](CO)[C@@H](O)[C@H](O)[C@H]3O[C@@H]3O[C@@H](C)[C@H](O)[C@@H](O)[C@H]3O)C[C@]12C [GINSENOSIDE RG2]
READING QUALIFIER: =
READING: 3.11

COMPOUND: C[C@@H]1O[C@@H](O[C@H]2[C@H](O[C@H]3CC[C@@]4(C)[C@@H](CC[C@]5(C)[C@@H]4CC=C4[C@@H]6CC(C)(C)CC[C@]6(C(=O)O[C@@H]6O[C@H](CO[C@@H]7O[C@H](CO)[C@@H](O[C@@H]8O[C@@H](C)[C@H](O)[C@@H](O)[C@H]8O)[C@H](O)[C@H]7O)[C@@H](O)[C@H](O)[C@H]6O)CC[C@]45C)[C@]3(C)CO)OC[C@H](O)[C@@H]2O)[C@H](O)[C@H](O)[C@H]1O
READING QUALIFIER: <
READING: 3.79
